tested on: P. falciparum stage V gametocytes; parameters: BacTiter-Glo ATP luminescence viability of purified stage V gametocytes in 384-well plates, per cent inhibition versus DMSO; conditions: 48 h, 5 µM; inhibitor
About 3,200 (25%) of roughly 13,000 compounds showed an effect of 50% or more. Some of the results follow.

[
  {
    "Compound": "Cc1ccc(Cl)c2sc(N3CCN(C(=O)c4ccc([N+](=O)[O-])o4)CC3)nc12",
    "Readout unit": "%",
    "% Inhibition": 95.54
  },
  {
    "Compound": "CC(C)CC(=O)Nc1cc(=O)[nH]c2nc(-c3ccccc3)nn12",
    "Readout unit": "%",
    "% Inhibition": 3.79
  },
  {
    "Compound": "COc1ccc(CN2CCN(CCCCNC(=O)c3ccc(NC(=O)c4ccc(Cl)cc4)cc3)CC2)c(OC)c1",
    "Readout unit": "%",
    "% Inhibition": 2.758
  },
  {
    "Compound": "O=C1C(C2CCC(c3ccc(Cl)cc3)CC2)=C2OCC3COC2(O3)c2ccccc21 (centres unmarked)",
    "Readout unit": "%",
    "% Inhibition": 65.18
  },
  {
    "Compound": "Cc1cc(N(C)C)nc(Nc2ccc(NC(=O)c3ccccc3F)cc2)n1",
    "Readout unit": "%",
    "% Inhibition": 4.015
  },
  {
    "Compound": "O=C(Nc1ccc(-c2cccc(-c3nc4ccccc4[nH]3)c2)cc1)Nc1ccc(Cl)c(Cl)c1",
    "Readout unit": "%",
    "% Inhibition": -10.68
  },
  {
    "Compound": "Cc1cc(Nc2ccc3c(c2)CCC3)n2ncnc2n1",
    "Readout unit": "%",
    "% Inhibition": 8.317
  },
  {
    "Compound": "NC(N)=Nc1ccc(OCCCCCOc2ccc(N=C(N)N)cc2)cc1",
    "Readout unit": "%",
    "% Inhibition": 39.96
  },
  {
    "Compound": "NC(N)=Nc1ccc(OCCCCCOc2ccc(N=C(N)N)c(Cl)c2)cc1Cl",
    "Readout unit": "%",
    "% Inhibition": 34.57
  },
  {
    "Compound": "Cc1cc(CN2CCC(C(=O)Nc3ccc(-c4nc5ccccc5[nH]4)cc3)CC2)oc1C",
    "Readout unit": "%",
    "% Inhibition": -34.2
  },
  {
    "Compound": "Cc1cccc(C(=O)Nc2ccnc(N(C)C3CCN(Cc4cccc(O)c4)CC3)c2)c1",
    "Readout unit": "%",
    "% Inhibition": -19.45
  }
]

###

tested on: P. falciparum stage V gametocytes; set-up: BacTiter-Glo ATP luminescence viability of purified stage V gametocytes in 384-well plates, per cent inhibition versus DMSO; conditions: 48 h, 5 µM; inhibitor
Out of some 13,000 compounds screened, about 3,200 (25%) showed an effect of 50% or more. Some of the results follow.
Use 20% as the dividing line for % Inhibition, with the line itself on the Fulfilled side and lower values as Not fulfilled.

[
  {
    "Compound": "OCc1ccc2nc3c(cc2c1)-c1cccc2cccc-3c12",
    "Class name": "Not fulfilled"
  },
  {
    "Compound": "Cc1cnc(Nc2ccccc2)nc1N[C@@H](CCCN)C(=O)Nc1ccccc1",
    "Class name": "Fulfilled"
  },
  {
    "Compound": "COc1cc(NC(=O)CCCCCCCCN2CCN(C)CC2)c2ncccc2c1",
    "Class name": "Not fulfilled"
  },
  {
    "Compound": "CN(C)c1cccc2c1nc(-c1ccco1)n2CC1CCCN1 (stereo not drawn)",
    "Class name": "Not fulfilled"
  },
  {
    "Compound": "CN(C)Cc1ccc(-c2cc3c(-c4ccc(CN(C)C)cc4)ccnc3[nH]2)cc1",
    "Class name": "Fulfilled"
  },
  {
    "Compound": "COC(=O)c1cccc(CNCc2ccc(-c3ccc(-c4nc5cc(C(F)(F)F)ccc5[nH]4)s3)cc2)c1.O=C(O)C(F)(F)F",
    "Class name": "Not fulfilled"
  },
  {
    "Compound": "Fc1ccc2[nH]c(-c3ccccc3)nc2c1CN1CCC(N2CCCC2)CC1",
    "Class name": "Not fulfilled"
  },
  {
    "Compound": "NCCNS(=O)(=O)c1ccc(-c2ccnc3[nH]c(-c4ccncc4)cc23)cc1",
    "Class name": "Fulfilled"
  },
  {
    "Compound": "c1ccc(-c2[nH]c3ccccc3c2CN2CCC(N3CCCCC3)CC2)nc1",
    "Class name": "Fulfilled"
  },
  {
    "Compound": "CCOc1cc2ncnc(Nc3ccc(OCc4ccccc4F)c(Cl)c3)c2cc1OCC",
    "Class name": "Not fulfilled"
  },
  {
    "Compound": "Cc1cnc(NCC2CCCCC2)nc1N[C@@H](CC(C)C)C(=O)Nc1ccccc1",
    "Class name": "Not fulfilled"
  },
  {
    "Compound": "C/C=C1/CN2CC[C@H]1C[C@H]2[C@H](O)c1ccnc2ccc(OC)cc12",
    "Class name": "Not fulfilled"
  },
  {
    "Compound": "Fc1ccc2nc(-c3ccc(-c4ccc(CNCCc5cccnc5)cc4)s3)[nH]c2c1",
    "Class name": "Not fulfilled"
  },
  {
    "Compound": "Cc1cccc2nc(-c3ccc(-c4ccc(CNCCCN5CCCC5=O)cc4)cc3)[nH]c12.O=C(O)C(F)(F)F",
    "Class name": "Not fulfilled"
  },
  {
    "Compound": "CC(C)C(C(=O)n1ncc2c3c(N)nc(N)nc3ccc21)C(C)C",
    "Class name": "Not fulfilled"
  },
  {
    "Compound": "Clc1ccc(-c2[nH]c3ccccc3c2CN2CCC(N3CCCCC3)CC2)cc1",
    "Class name": "Not fulfilled"
  },
  {
    "Compound": "COc1ccc(-c2cnc(N)nc2N)cc1Cl",
    "Class name": "Not fulfilled"
  },
  {
    "Compound": "Nc1nccc(-c2ccc3c(/C=C/c4ccccc4)cnc(N)c3c2)n1",
    "Class name": "Not fulfilled"
  },
  {
    "Compound": "C=CCOC(=O)N1CCC(CNCc2ccc(-c3cccc(-c4nc5cccc(C)c5[nH]4)c3)cc2)C1.O=C(O)C(F)(F)F (stereo not drawn)",
    "Class name": "Not fulfilled"
  },
  {
    "Compound": "Fc1ccc2nc(-c3ccc(-c4cccc(CN5CCC(CCN6CCCCC6)CC5)c4)cc3)[nH]c2c1",
    "Class name": "Fulfilled"
  },
  {
    "Compound": "Fc1ccc2[nH]c(-c3ccc(-c4ccc(CN5CCC(CCN6CCCCC6)CC5)cc4)s3)nc2c1",
    "Class name": "Fulfilled"
  },
  {
    "Compound": "CN(C)Cc1cccc(-c2cc3c(-c4cnn(C)c4)c(Cl)cnc3[nH]2)c1",
    "Class name": "Not fulfilled"
  },
  {
    "Compound": "CC(CN(C)C)Oc1ccc2[nH]c(-c3cccc(OCc4ccccc4)c3)nc2c1C#N (stereo not drawn)",
    "Class name": "Not fulfilled"
  },
  {
    "Compound": "Cc1ccc(CNC(=O)[C@H](CCCN)Nc2nc(NCC3CCCCC3)ncc2C)cc1",
    "Class name": "Fulfilled"
  },
  {
    "Compound": "CC(C)(C)C1CC(=O)CC2C(=O)N(C3CCCCC3)C(=O)C21 (stereo not drawn)",
    "Class name": "Not fulfilled"
  },
  {
    "Compound": "Nc1ncc(-c2ccccc2)cc1/C=C/c1cccnc1",
    "Class name": "Fulfilled"
  }
]
